Tested on: MALME-3M melanoma
Test: NCI-60 one-dose screen, 48 h
Conditions: 10 µM
About 83,000 compounds went through this panel and 20% of them were active in at least one assay; those are over-represented in the sample as a whole. Calls of active or inactive are those of the source. The calls were made as follows: active = growth percent below 10; inactive = the rest.
Answer with one of the outcomes given here: active, inactive

Hi, do you know how CC(=O)c1nc2ccccc2n1CCN1CCN(C)CC1 came out in this test? inactive

Short answer needed: outcome of this test for O=C(CC(c1ccccc1)N1CCOCC1)c1ccccc1 (stereo not given) ? inactive

Which outcome was assigned to Cc1cc(N(CCCNc2ccnc3cc(Cl)ccc23)Cc2cccs2)nc(Cl)n1 in this test? inactive

Short answer needed: outcome of this test for COc1cc(Cl)cc(-c2nn(-c3cccc(NC(=O)c4ccc(Cl)c(Cl)c4)c3)cc2-c2ccncc2)c1 ? inactive

Give the logged outcome of this assay for the following molecule: O=c1[nH]c(-c2ccc(Cl)cc2)nc2sc3c(c12)CCCC3 inactive

Please indicate how the test categorized CC(C)(Cl)CCC1=C(Cl)C(=O)c2ccccc2C1=O . inactive

Per the records of this test, what outcome belongs to CCOC(=O)C(=Cc1ccc(Br)cc1)C(=O)OCC ? active

Assay outcome for O=C1/C(=C\c2ccc(Cl)cc2)CN(C(=S)Nc2ccccc2)C/C1=C\c1ccc(Cl)cc1 : what was it? active

Please indicate how the test categorized O=[P@@]1(c2ccccc2)O[C@H](COCc2ccccc2)[C@@H](OCc2ccccc2)[C@H](OCc2ccccc2)[C@H]1O . inactive

What was the test verdict on CC(=O)N1N=C(c2ccc(Cl)cc2)CC1c1sc(Cl)nc1Cl (stereo not given) ? inactive

====

System: LOX IMVI melanoma
Assay: NCI-60 one-dose screen, 48 h (100 = growth as untreated, 0 = no growth, -100 = all killed)
Conditions: 10 µM
About 83,000 compounds went through this panel and 20% of them were active in at least one assay; those are over-represented in the sample as a whole.
property-name: growth (%)
Give bare numbers, in %.

COc1ccc(NC2=NC(C)(CO)CS2)cc1 (stereo not given) = 95.7
CCN1Cc2c(/C=C/c3ccccc3)nc3ccc(OC)cc3c2N(c2cccc(Cl)c2)C1 = 73
COc1ccc(/C=C2/CN(C(=O)c3ccccc3F)C/C(=C\c3ccc(OC)cc3)C2=O)cc1 = -54.5
CN(C)CCCn1c(=O)c2ccccc2c2cnc3[nH]ccc3c21 = 1.3
O=C(Nc1nc2ccccc2s1)Nc1ccc([N+](=O)[O-])cc1Cl = 12.7

Report growth for each item below.
1. COc1cc(-c2cc(/C=C3\C(=O)Nc4ccc(Cl)cc43)[nH]n2)cc(OC)c1OC
2. COc1ccc(N2C(=O)C3c4[nH]c5ccc(OCc6ccccc6)cc5c4C4CCC(C(C)C)CC4C3C2=O)cc1 (stereo not given)

5.85
90.1

Would you mind giving growth for every compound in the list below?
1. COc1ccc2c(c1)C(=O)c1c-2c(OCCN(C)C)nc2ccccc12
2. Clc1ccc(Nc2ccnc(NCCNc3ccnc4cc(Cl)ccc34)n2)cc1
3. COc1cc(Nc2ncnc(Nc3ccc4c(n3)NC(=O)C(C)(C)O4)n2)cc(OC)c1OC
4. C(CCCC1=NCCO1)CCCC1=NCCO1

1. -41.8
2. -79.5
3. -27
4. 94

// for each compound below, give its growth
1. COc1cc(-c2cc(C(=O)N3CCN(C(=O)c4ccccc4NCc4cccs4)CC3)nc3cc(-c4ccccc4)nn23)cc(OC)c1OC
2. CCC(=O)N1C/C(=C/c2ccc(Br)cc2)C(=O)/C(=C/c2ccc(Br)cc2)C1

[70, -87.7]

Quick one: give me growth for each item below, same order please.
1. C[C@]12CC[C@@H]3c4ccc(O)cc4C[C@@H](O)[C@H]3[C@@H]1CC[C@@H]2O
2. Cc1ccc(Nc2cc(C)nc(NCCCNc3ccnc4cc(Cl)ccc34)n2)cc1
3. COc1ccc(N=C2C(=Nc3ccc(OC)cc3)N(c3ccc(N(C)C)cc3)C(=S)N2c2ccc(OC)cc2)cc1
4. Clc1ccc2c(NCCCNc3nccc(Nc4ccc(Br)cc4)n3)ccnc2c1
5. O=C(O)c1ccc(P(=O)(O)O)c([N+](=O)[O-])c1
6. Cn1c([N+](=O)[O-])cnc1/C=C1\Oc2cc(Cl)ccc2C1=O
7. CCOCCOCCOCCOCCOCCOCCOCCOCCOCCO (tested in a mixture with another compound)

[97.3, -82.7, 86.3, -85.8, 102, -60.3, -72.5]
